Data provenance is patent US7326727B2.

Observed pIC50, system human heparanase (Homo sapiens, UniProt Q9Y251).
Schema: pIC50 number; meaning minus log10 of the concentration expressed in molar units.

* O=C(O)Cc1nc(-c2ccc(-c3ccc(NC(=O)c4cc5ccccc5s4)cc3Cl)o2)cs1 | 6.40

Continue with the compound presented below.
Problem: I'd like to know its pIC50. The compound in question is `COc1cccc(C(=O)Nc2ccc(-c3ccc(-c4csc(CC(=O)O)n4)o3)c(Cl)c2)c1`
Result: 5.15
